assay: yeast display, Sf9 membrane polyspecificity reagent, FACS + sequencing; frameworks hold sequencing errors
Measured Property: polyreactivity (PSR sort gate)

Answered cases to consult:
QVQLVESGGGLVQAGGSLRLSCAASGLIFRYYAKGWYRQGPGNEMELVAVISRRGDSTYYADSVKVRFTISRDNAKNTVYLQMISLKPEDTAVFYCAAEYFKRYKSYEYWGQGTQVTVSS : high polyreactivity
QVQLVESGGGLVQAGGSLRLSCAASGSIFDTYAMGWYRQAPGKERELVATITRSGARTYYADSVKGRFTISRDNAKNTVYLQMNSLKPEDTAVYYCAALYYDDFGYEYDYWGQGTQVTVSS : low polyreactivity
QVQLVESGGGLVQAGGSLRLSCAASGRTFYAYAMGLYRQAPGKERELVASIRWSSGSTNYADSVKRRFTISRDYAKITVYLQMNILKAEDTAVYYCAARYYYYGGHRLYWGQGTQLTVSS : high polyreactivity
QVQLVESGGGLVQAGGSLRLSCAASGPTFPVKSMGWYRQAPGKERELVAAISWRDGRTYYADSVKGRFTISRDNAKNTVYLQMNSLKPEDTAVYYCNVVKRRSDWGMDYWGQGTQVTVSS : high polyreactivity

Continue with the sequence presented below.
Per the record, QVQIVESGGGLVQAGGSLRLSCAASGSTFGGNAMGWYRQAPGKERELVASITSSGGSTYYADSVKGRFTISRDNAKNTVYLQMNSLKPEDTAVYYCAAGKWYRSPWKYDYWGQGTQVTVSS has polyreactivity (PSR sort gate) of low polyreactivity
